B1: TFE3 (parent)
chain: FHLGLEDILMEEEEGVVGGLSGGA

- Variants of: B1
- method: protein stability index of a GFP-peptide fusion (GPS, HEK-293T) (PSI 1-6); higher = more stable;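 note: lentivirally expressed fusions sorted by FACS into six bins by GFP to DsRed ratio, PSI derived from sequencing read proportions per bin multiplied by bin number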
- experimental-conditions: c terminus: a fixed tail appended
Label 1.0 when protein stability index is at or above 4; otherwise label 0.0.

| mutation-string | class-assignment |
| --- | --- |
| I8E | 1.0 |
| E6D | 0.0 |
| L3W | 0.0 |
| E12C | 0.0 |
| S21N | 0.0 |
| I8A | 1.0 |
| E12Y | 0.0 |
| E11K | 0.0 |
| A24I | 0.0 |
| L3T | 1.0 |
| G15C | 0.0 |
